- Test system: 439559-082-T-J2-PDC spheroids viability;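 also: spheroids exposed to the agents for 7 days before readout; percent of luminescence signal in DMSO vehicle wells taken as 100% viability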
- PROCEDURE_DETAILS: Anticancer human tumor 439559-082-T-J2-PDC patient-derived colon adenocarcinoma cell line growth inhibition [GQUAD]
- PROTOCOL_CONDITIONS: second compound 1 µM; first compound 10 µM; hits give low values
Exercise: for every item that follows, state its recorded viability, T/C.
Express it in %; write the number only.

Need viability, T/C of Nc1ccn(C2OC(CO)C(O)C2(F)F)c(=O)n1 (stereo not drawn) + Cc1cnc(CNC(=O)c2c(=O)c3ccc(N4CCCN(C)CC4)nc3n3c2sc2ccccc23)cn1 , thanks. 27.3

Try this compound next: C#Cc1c(F)ccc2cc(O)cc(-c3ncc4c(N5CC6CCC(C5)N6)nc(OCC56CCCN5CC(F)C6)nc4c3F)c12 (stereo not drawn) + CN(C)c1ccc(Nc2c3ccc(NC(=O)CCN4CCCC4)cc3nc3cc(NC(=O)CCN4CCCC4)ccc23)cc1 48.5

Also COc1cc(C2c3cc4c(cc3C(OC3OC5COC(C)OC5C(O)C3O)C3COC(=O)C23)OCO4)cc(OC)c1O (stereo not drawn) + Cc1cnc(CNC(=O)c2c(=O)c3ccc(N4CCCN(C)CC4)nc3n3c2sc2ccccc23)cn1 ? 55.1
